# ASSAY: physchem
# CONDITION NOTES: chloroform, organic solvent or mixture, thermodynamic from solid

{"SMILES RECORD": "CC(C)(O)CNc1nc(Nc2ccnc(C(F)(F)F)c2)nc(-c2cccc(C(F)(F)F)n2)n1", "RESULT UNITS": "µg/mL", "solubility at 24 h": 200}

---

# ASSAY: Quantitative (24-hour shake flask) thermodynamic solubility of Compound 1A in organic solvents and water
# Assay type: physicochemical
# CONDITION NOTES: thermodynamic from solid, Water, room temperature
EXPERIMENTAL READOUT: solubility at 24 h

{"COMPOUND": "CC(C)(O)CNc1nc(Nc2ccnc(C(F)(F)F)c2)nc(-c2cccc(C(F)(F)F)n2)n1 [Compound 1A]", "RECORDED MEASUREMENT": "< 100 µg/mL"}
